- System: primary human AML cells
- assay overview: Primary screen: differentiation of primary human AML cells in vitro (CD34/CD15, HTS flow cytometry)
- test parameters: compared to DMSO
Where a name gives a salt, the structure may show the parent alone.
Examples of compounds with documented % increase CD34+ (cell counts) follow.
Number only, in %; omit the unit.

Study these solved cases before continuing.
compound	units of measure	% increase CD34+ (cell counts)
CC(=O)c1ccc2c(c1)N(CCCN(C)C)c1ccccc1S2.O=C(O)/C=C\C(=O)O [UM0118758, Acetopromazine maleate salt]	%	−11.68
N[C@@H]1C[C@H]1c1ccccc1.N[C@H]1C[C@@H]1c1ccccc1.O=S(=O)(O)O [UM0121497, Tranylcypromine sulfate]	%	−15.83
COc1ccc(-c2oc3cc(O)cc(O)c3c(=O)c2O)cc1 [UM0119298, Kaempferide]	%	25.55

Report % increase CD34+ (cell counts) for O=c1c2ccccc2oc2ccc(O)cc12 [UM0121186, 2-Hydroxyxanthone] please.
48.11

Report % increase CD34+ (cell counts) for N[C@@H]1C[C@H]1c1ccccc1 [UM0118428, Tranylcypromine hydrochloride] please.
−11.95

Report % increase CD34+ (cell counts) for CO[C@@H]1[C@H](OC(=O)/C=C/C=C/C=C/C=C/C(=O)O)CC[C@]2(CO2)[C@H]1[C@@]1(C)O[C@@H]1CC=C(C)C please.
−54.59

Report % increase CD34+ (cell counts) for C[C@@H]1Cc2c(Cl)cc(C(=O)N[C@@H](Cc3ccccc3)C(=O)O)c(O)c2C(=O)O1 please.
1.28

Report % increase CD34+ (cell counts) for COC(=O)c1ccc2c(c1)[nH]c1ncnc(NCCCN3CCCCC3)c12 please.
26.44

Report % increase CD34+ (cell counts) for CC(C)Oc1ccc2c(=O)c(-c3ccccc3)coc2c1 please.
39.89

Report % increase CD34+ (cell counts) for COc1cc(OC)c2c(=O)c(-c3ccc4c(c3)OCO4)coc2c1 please.
25.53

Report % increase CD34+ (cell counts) for CO[C@H]1C[C@@H]2CC[C@@H](C)[C@@](O)(O2)C(=O)C(=O)N2CCCC[C@H]2C(=O)O[C@H]([C@H](C)C[C@@H]2CC[C@@H](O)[C@H](OC)C2)CC(=O)[C@H](C)/C=C(\C)[C@@H](O)[C@@H](OC)C(=O)[C@H](C)C[C@H](C)/C=C/C=C/C=C/1C please.
−57.86

Report % increase CD34+ (cell counts) for O[C@H]1[C@H]2[C@H](O)CCCN2C[C@H]1O please.
−43.81

Report % increase CD34+ (cell counts) for COc1ccc(-c2cc(=O)c3c(OC(C)=O)cc(OC(C)=O)cc3o2)cc1 [UM0120987, Acacetin diacetate] please.
22.16

Report % increase CD34+ (cell counts) for COc1ccc(-c2cc(=O)c3c(O)cc(O)cc3o2)cc1O please.
−19.72

The measured values listed here are drawn from patent US9757378B2.
